tested on: DeltatarO mutant; assay: S. aureus survival, RN4220 and DeltatarO strains – OD600, teichoic acid synthesis inhibitors, primary screen (AID 463173); settings: S. aureus RN4220 wild type/DeltatarO growth, OD600, 18 h, active compounds read low, screened at 18.75 µg/mL (by protocol)
Among all 52,000 compounds or so, about 4,300 (8.3%) were called active. Shown is part of a subset that was picked to be rich in actives.
Would you mind telling me the reported survival of each entry?
Numbers only, in %.

// known answers, use as guide
{"molecule": "COc1ccc(NC(=O)CC2C(=O)N(c3cccc(C)c3)C(=O)N2C2CCCCC2)cc1 (stereo not given)", "system.under.test": "DeltatarO mutant", "parameter.measured": "survival", "recorded.result": 69}
{"molecule": "O=C(CSc1nccn1Cc1ccccc1)NC1CCCC1", "system.under.test": "DeltatarO mutant", "parameter.measured": "survival", "recorded.result": 69}
{"molecule": "CC(C)c1ccc(NC(=O)C2CCCN(S(=O)(=O)c3cccc4cccnc34)C2)cc1 (stereo not given)", "system.under.test": "DeltatarO mutant", "parameter.measured": "survival", "recorded.result": 71}

Hi there! I need survival for each item below, if you can.
1. COC(=O)c1sccc1S(=O)(=O)N(CC(=O)Nc1cc(C)ccc1C)c1ccc(C)c(C)c1
2. COC(=O)c1sccc1S(=O)(=O)N(CC(=O)Nc1cccc(C)c1C)c1ccc(C)c(C)c1

Reply text:
1. 88
2. 89
